Tested on: HT-29
Assay: NCI tumour cell line growth inhibition, 48 h
Calls of active or inactive are those of the source. Cut-off read from the data, not from the text of the source: active = GI50 up to about 1.1 µM and inactive = higher.
readout: GI50

{"compound": "O=C(NCCCCN(CCCNC(=O)C(F)(F)F)Cc1ccc2ccccc2c1)C(F)(F)F", "measurementTarget": "HT-29", "readout": "GI50", "recordedMeasurement": "13.7 µM (inactive)"}
{"compound": "CC(NNC(=O)CC(=O)N(C(=O)c1ccccc1)c1ccc(Cl)cc1)c1cc2ccccc2oc1=O (centres undefined)", "measurementTarget": "HT-29", "readout": "GI50", "recordedMeasurement": "> 10 µM (inactive)"}
{"compound": "CS(=O)(=O)O[C@H]1CN2C[C@@H](O)[C@@H](O)[C@H]2[C@H]1CO.[B]", "measurementTarget": "HT-29", "readout": "GI50", "recordedMeasurement": "> 100 µM (inactive)"}
{"compound": "CC[C@]1(Cc2ccc(OC)c(OC)c2)C=[N+]([O-])O[C@H](OC2CCCC2(c2ccccc2)c2ccccc2)[C@@H]1OC(C)=O (some centres undefined)", "measurementTarget": "HT-29", "readout": "GI50", "recordedMeasurement": "1.98 µM (inactive)"}
{"compound": "O=C1Nc2ccc([N+](=O)[O-])cc2/C1=N/Nc1ccc([N+](=O)[O-])cc1", "measurementTarget": "HT-29", "readout": "GI50", "recordedMeasurement": "21.4 µM (inactive)"}
{"compound": "CC(=O)Oc1ccc2c(c1)oc1c3ccc(OC(C)=O)cc3n(C)c(=O)c21", "measurementTarget": "HT-29", "readout": "GI50", "recordedMeasurement": "31.8 µM (inactive)"}
{"compound": "CN(C)c1ccc(C(c2ccc(N(C)C)cc2)c2ccc([N+](=O)[O-])cc2)cc1", "measurementTarget": "HT-29", "readout": "GI50", "recordedMeasurement": "> 100 µM (inactive)"}
{"compound": "CSc1nc(Nc2ccccc2Cl)c2c(N)nn(C)c2n1", "measurementTarget": "HT-29", "readout": "GI50", "recordedMeasurement": "> 100 µM (inactive)"}
{"compound": "Nc1ncnc2nc(N3CCN(CCO)CC3)[nH]c12", "measurementTarget": "HT-29", "readout": "GI50", "recordedMeasurement": "> 100 µM (inactive)"}

---

System: SW-620
Assay: NCI tumour cell line growth inhibition, 48 h
Active and inactive are the calls of the source. Cut-off read from the data, not from the text of the source: active = GI50 up to about 1.1 µM and inactive = higher.
readout: GI50

{"compound": "COc1ccccc1CCc1cc(OC)c(OC)c(OC)c1", "recordedMeasurement": "47.5 µM (inactive)"}
{"compound": "COC1C(O)C(n2ncc3c(SC)nc(SC)nc32)OC1C(O)CO (stereo unspecified)", "recordedMeasurement": "> 100 µM (inactive)"}
{"compound": "COC(=O)C(/C(=N/N)C(=O)Nc1cc(Cl)c(Cl)cc1Cl)c1nc2ccc(Cl)cc2nc1O (stereo unspecified)", "recordedMeasurement": "> 100 µM (inactive)"}
{"compound": "Cc1cc(/N=C/c2ccc(N(C)C)cc2)n(-c2ccccc2)n1", "recordedMeasurement": "34.9 µM (inactive)"}
{"compound": "CN(C)CCCNC(=O)N/N=C/c1ccccc1", "recordedMeasurement": "> 100 µM (inactive)"}
{"compound": "O=C(N/N=C/c1ccc(Br)cc1)N/N=C/c1ccc(Br)cc1", "recordedMeasurement": "7.13 µM (inactive)"}
{"compound": "CCCCCCCCCCCCCCC1OC(=O)c2ccccc21 (stereo unspecified)", "recordedMeasurement": "63.4 µM (inactive)"}
{"compound": "CN1C(=O)C23CCCCC2CC1(c1ccccc1)S3 (stereo unspecified)", "recordedMeasurement": "> 100 µM (inactive)"}
{"compound": "N#Cc1c(NC(=S)NC(=O)c2ccccc2)nc2c(c1-c1ccccc1)CCCC2", "recordedMeasurement": "> 100 µM (inactive)"}
{"compound": "COc1c2c(c3c(c1OC)c(=O)c1ccccc1n3C)OCO2", "recordedMeasurement": "> 100 µM (inactive)"}
{"compound": "Cc1cc2oc(C)c(S(=O)(=O)NC(=O)Nc3ccc(Cl)cc3)c(=O)c2c(=O)o1", "recordedMeasurement": "> 100 µM (inactive)"}

Attribution: ChEMBL document CHEMBL1201862
